target: Cathepsin B (Homo sapiens); test: Cathepsin B inhibition, fluorogenic peptide substrate kinetic assay (selectivity); assay type: biochemical; details: ratio of cathepsin B inhibition constant to cathepsin S inhibition constant;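 also: value is the cathepsin B inhibition constant divided by the cathepsin S one, each from kinetic fluorescence readings (ex 380 nm, em 450 nm) of a 10 µM coumarin peptide substrate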
Property Measured: Selectivity for Cat. S over Cat. B

The examples below pair each entry with its known result.
# Smiles Record, Selectivity for Cat. S over Cat. B
rows = [
    ("C[C@@H](CNc1ccc(OC(F)(F)F)cc1)NC(=O)[C@H](CS(=O)(=O)Cc1ccccc1)NC(=O)N1CCOCC1", "++ (++, >100)"),
    ("CC(C)[C@@H](CNc1ccc(OC(F)(F)F)cc1)NC(=O)[C@H](CCc1ccccc1)CC(=O)N1CCOCC1", "+++ (+++, >1000)"),
    ("COc1ccc(NC[C@H](C)NC(=O)[C@H](CC2CCCCC2)NC(=O)N2CCOCC2)cc1", "++ (++, >100)"),
    ("C[C@@H](CNc1ccc(OC(F)(F)F)cc1)NC(=O)[C@@H](CC(=O)N1CCOCC1)CC1CCCCC1", "+++ (+++, >1000)"),
]

Next molecule, Selectivity for Cat. S over Cat. B to be filled in.
IN: Name the recorded Selectivity for Cat. S over Cat. B for CC[C@@H](CN1CC(C)(C)c2cc(F)ccc21)NC(=O)O[C@@H](CC1CCCCC1)C(=O)N1CCOCC1 .
OUT: +++ (+++, >1000)
